PARAMETER MEASURED: melting point

Query string: Field request: melting point | item: CCCCS(=O)(=O)N(C(=O)OC(C)(C)C)c1cc(OC[C@@H]2CO2)ccc1OCc1ccccc1
Result string: 87 to 89 °C

Query string: Field request: melting point | item: CNC(=O)c1cc(-c2ccc(OC)cc2)nn(CC=Cc2ccccc2)c1=O
Result string: 160 to 161 °C

Query string: Field request: melting point | item: C#CCOC(=O)N(I)C(C)C(=O)O (stereo not given)
Result string: 95 to 99 °C

Query string: Field request: melting point | item: O=C(NNc1nc(C(F)(F)F)nc(-c2ccncc2)c1-c1ccc(F)cc1)C(F)(F)F
Result string: 240 to 242 °C

Query string: Field request: melting point | item: CSc1nnc(-c2cc3c(Oc4ccc(Cl)cc4)cncc3s2)o1
Result string: 158 to 160 °C

Query string: Field request: melting point | item: CCC(CC)c1nn(-c2ccc(C(F)(F)F)cn2)cc1CCCOc1c(CC(=O)O)cccc1OC
Result string: 100 to 101 °C

Query string: Field request: melting point | item: CC(=O)NC1C(OCc2ccccc2)OC(COCc2ccccc2)C(OCc2ccccc2)C1OCC(=O)O (stereo not given)
Result string: 128 to 129 °C

Query string: Field request: melting point | item: CCCC(=O)C1=C(O)CC(c2cc(C3CCCO3)no2)CC1=O (stereo not given)
Result string: 102 to 104 °C

Query string: Field request: melting point | item: ON1C(c2ccccc2)CC2(CC1c1ccccc1)OCCO2 (stereo not given)
Result string: 161 to 162 °C

Query string: Field request: melting point | item: CC(C)c1cccc(C(C)C)c1NC(=O)NCC1(c2ccc(Cl)cc2)CCCC1
Result string: 189 to 192 °C

* * *

Reported melting point values for a set of compounds

Answered cases to consult:
# COMPOUND, VALUE REPORTED
measured = [
    ("Fc1ccc(-c2cc(C(F)(F)F)n3cnc(-c4cccnc4)c3n2)cc1Cl", "188 °C"),
    ("CCCCN(C)C(=NC#N)NCc1cccnc1", "65 to 69 °C"),
    ("CC(C)OC(=O)c1cc(F)c(Cl)cc1Cl", "35 °C"),
    ("COc1cc2cc(F)cnc2cc1F", "98 °C"),
    ("CCCCc1cn(Cc2ccc(-c3ccccc3C(=O)O)cc2)c2cccc(SC)c2c1=O", "155 °C"),
    ("CC(C)CC(=O)O[C@H]1C[C@H](O)C=C2C=C[C@H](C)[C@H](CC[C@@H]3C[C@@H](O)CC(=O)O3)[C@H]21", "153 to 155 °C"),
    ("CN1C(=O)c2c(-c3ccccc3)noc2CC1c1ccccc1 (stereo unspecified)", "108 to 111 °C"),
    ("O=Cc1ccc(OC(F)F)c([N+](=O)[O-])c1", "88 to 90 °C"),
    ("CC(C)(C)OC(=O)NCCNC(=O)c1cc(Cl)ccn1", "120 to 123 °C"),
    ("CCCSC(=S)N1Cc2[nH]c3ccccc3c2CC1CO (stereo unspecified)", "130 to 131 °C"),
]

Pending compound:
Query string: Field request: melting point | item: CN(C)Cc1ccc(Cl)cc1C(=O)c1ccccc1F
Result string: 91 to 92 °C

Entry source: a melting point compilation (Tetko et al.; mined from patent text by program, amines drawn as free bases though some values may be those of a salt)
